Here's a roundup of IC50 values tested on PIK3CB (Human) (UniProt P42338), taken from various published works.

Record C[C@H](NC(=O)c1c(N)nn2cccnc12)c1cc2cccc(CNCC3CCCO3)c2c(=O)n1-c1ccccc1 (stereo partly shown) : what is its IC50 with PIK3CB (Human) (UniProt P42338)?
> 10000 nM

Record Cc1ccccc1-n1c(Cn2nc(-c3ccc(Cl)c(O)c3)c3c(N)ncnc32)cc2ccccc2c1=O : what is its IC50 with PIK3CB (Human) (UniProt P42338)?
> 10000 nM

Record CC(=O)Nc1nc2cc(-c3nn(Cc4cc5cccc(C)c5c(=O)n4-c4ccccc4C)c4ncnc(N)c34)ccc2o1 : what is its IC50 with PIK3CB (Human) (UniProt P42338)?
< 1000 nM

Record CN1CCN(Cc2nnc3ccc(-c4ccc5nc(N)oc5c4)cn23)CC1 : what is its IC50 with PIK3CB (Human) (UniProt P42338)?
> 10000 nM

Record Nc1ncc(-c2cc(N3C(=O)O[C@@H](c4ccc(OCCO)cc4)[C@@H]3CO)nc(N3CCOCC3)n2)c(C(F)(F)F)n1 : what is its IC50 with PIK3CB (Human) (UniProt P42338)?
11 nM

Record Nc1nc2cc(-c3ccc4ncc(N5CCC(O)CC5)nc4c3)ccc2o1 : what is its IC50 with PIK3CB (Human) (UniProt P42338)?
< 10000 nM

====

pIC50: −log10 of the molar value.
Here's a roundup of pIC50 values tested on PIK3CB (Human), taken from various published works.

Here are 6 compounds together with their reported answers.
{"compound": "C[C@H](Nc1ncnc2[nH]cnc12)c1cc2cccc(Cl)c2c(C(=O)N2CC(O)C2)n1", "pIC50": "> 5.00"}
{"compound": "Cc1ccn2nc(N)c(C(=O)N[C@@H](C)c3cc4cccc(Cl)c4c(=O)n3-c3ccccc3)c2n1", "pIC50": "> 7.00"}
{"compound": "O=C(c1cnc2ccc(-c3ccc4c(Nc5ccccc5)noc4c3)cn12)N1CCOCC1", "pIC50": "> 5.00"}
{"compound": "C[C@H](NC(=O)c1nc(-c2cccc(S(=O)(=O)N(C)C)c2)cnc1N)c1cc2cccc(Cl)c2c(=O)n1-c1ccccc1", "pIC50": "5.00 to 6.00"}
{"compound": "C[C@H]1[C@@H](CO)OC(=O)N1c1cc(-c2cnc(N)nc2C(F)(F)F)nc(N2CCOCC2)n1", "pIC50": 8.30}
{"compound": "CC(=O)Nc1ncc(-c2cccc3cc([C@H](C)NC(=O)c4c(N)nn5cccnc45)n(-c4ccccc4)c(=O)c23)s1", "pIC50": "< 5.00"}

Request the reported pIC50 associated with CNC(=O)C(C)Cn1cnc2ccc(-c3cnc(OC)c(NS(=O)(=O)c4ccc(F)c(C#N)c4)c3)cc2c1=O (single isomer, unassigned)
6.54

====

Here's a roundup of IC50 values tested on PIK3CB (Human) (UniProt P42338), taken from various published works.

{"compound": "CCOc1nc(-c2cnc(N)nc2N[C@@H](C)c2cc3cccc(-c4ccc(=O)n(C)c4)c3c(=O)n2-c2ccccc2)cs1", "IC50": "1000 to 10000 nM"}
{"compound": "Cc1cc(C)n2nc(N)c(C(=O)N[C@@H](C)c3cc4cccc(Cl)c4c(=O)n3-c3ccccc3)c2n1", "IC50": "100 to 1000 nM"}
{"compound": "C[C@H]1[C@@H](CCO)OC(=O)N1c1cc(-c2cnc(N)nc2C(F)(F)F)nc(N2CCOCC2)n1", "IC50": "11 nM"}
{"compound": "CC(C)N1CCC(Nc2ncnc3ccc(-c4ccc5oc(N)nc5c4)cc23)CC1", "IC50": "< 10000 nM"}

Record Cc1cccc2cc(Cn3nc(-c4cccc(O)c4)c4c(N)ncnc43)n(-c3ccccc3OCCN3CCOCC3)c(=O)c12 : what is its IC50 with PIK3CB (Human) (UniProt P42338)?
> 10000 nM

Record CC(C)c1ccnc2c(C(=O)N[C@@H](C)c3cc4cccc(Cl)c4c(=O)n3-c3ccccc3)c(N)nn12 : what is its IC50 with PIK3CB (Human) (UniProt P42338)?
> 10000 nM

Record CCC(CC)NC(=O)C(C)Cn1cnc2ccc(-c3cnc(OC)c(NS(=O)(=O)c4ccc(F)cc4Cl)c3)cc2c1=O (single isomer, unassigned) : what is its IC50 with PIK3CB (Human) (UniProt P42338)?
963 nM

Record Cc1nc2c(-c3nnc[nH]3)cc(-c3ccncc3)cc2n1-c1ccnc2c(Cl)cccc12 : what is its IC50 with PIK3CB (Human) (UniProt P42338)?
7 nM

Record CC(=O)Nc1nc2ccc(-c3nn(Cc4cc5cccc(C)c5c(=O)n4-c4ccccc4)c4ncnc(N)c34)cc2o1 : what is its IC50 with PIK3CB (Human) (UniProt P42338)?
< 10000 nM

Record C[C@H](Nc1ncnc2ccccc12)c1cc2cccc(Cl)c2c(C(=O)N2CCOCC2)n1 : what is its IC50 with PIK3CB (Human) (UniProt P42338)?
> 10000 nM

Record CC(=O)Nc1nc2ccc(-c3nn(Cc4cc5cccc(C)c5c(=O)n4-c4ccccc4C)c4ncnc(N)c34)cc2o1 : what is its IC50 with PIK3CB (Human) (UniProt P42338)?
> 10000 nM

Record C[C@H](Nc1nc(N)ncc1C#N)c1cc2cccc(-c3cccc(NS(C)(=O)=O)c3)c2c(=O)n1-c1ccccc1 : what is its IC50 with PIK3CB (Human) (UniProt P42338)?
1000 to 10000 nM

====

Here's a roundup of IC50 values tested on PIK3CB (Human) (UniProt P42338), taken from various published works.

Here are 3 compounds together with their reported answers.
{"compound": "Cc1ccccc1-n1c(Cn2nc(-c3nn[nH]n3)c3c(N)ncnc32)cc2cccc(C)c2c1=O", "observed": "< 10 µM"}
{"compound": "Cc1ccccc1-n1c(Cn2nc(-c3ccc(F)cc3)c3c(N)ncnc32)cc2cccc(C)c2c1=O", "observed": "> 10 µM"}
{"compound": "Cc1cn(-c2cnc3ccc(-c4ccc5oc(N)nc5c4)cc3n2)cn1", "observed": "> 10 µM"}

Record Nc1nc2cc(-c3ccc4ncn(C(=O)N5CCOCC5)c4c3)ccc2o1 : what is its IC50 with PIK3CB (Human) (UniProt P42338)?
> 10 µM

Record CC1CN(C(=O)c2nc([C@H](C)Nc3ncnc4scnc34)cc3cccc(Cl)c23)CCO1 (some centres unmarked) : what is its IC50 with PIK3CB (Human) (UniProt P42338)?
> 10 µM

Record C[C@H](Nc1ncnc2[nH]cnc12)c1cc2cccc(Cl)c2c(C(=O)NC2CCC2)n1 : what is its IC50 with PIK3CB (Human) (UniProt P42338)?
> 10 µM

Record C[C@H](Nc1nc(N)ncc1C(F)(F)F)c1cc2cccc(Cl)c2c(C(=O)N2CCOCC2)n1 : what is its IC50 with PIK3CB (Human) (UniProt P42338)?
> 10 µM

Record C[C@H](Nc1ccnc2ccnn12)c1cc2cccc(Cl)c2c(CCN2CCOCC2)n1 : what is its IC50 with PIK3CB (Human) (UniProt P42338)?
< 1 µM

====

pIC50: −log10 of the molar value.
Here's a roundup of pIC50 values tested on PIK3CB (Human), taken from various published works.

Here are 7 molecules together with their reported answers.
{"structure.string": "C[C@H](Nc1ncnc2[nH]cnc12)c1cc2cccc(Cl)c2c(C(=O)N(C)c2ccccc2)n1", "observable": "pIC50", "observed": "< 5.00"}
{"structure.string": "Cc1cccc2cc(Cn3nc(-c4cccc(F)c4)c4c(N)ncnc43)n(-c3ccccc3F)c(=O)c12", "observable": "pIC50", "observed": "< 5.00"}
{"structure.string": "Nc1nc2cc(-c3ccc4ncc(C(=O)N5CCC(F)CC5)n4c3)ccc2o1", "observable": "pIC50", "observed": "< 5.00"}
{"structure.string": "Cn1ncc2c(-c3ccc4cc[nH]c4c3)nc(N3CCOCC3)nc21", "observable": "pIC50", "observed": "< 5.00"}
{"structure.string": "Cc1cccc2cc([C@H](C)Nc3ncnc4[nH]cc(Br)c34)n(C3CC3)c(=O)c12", "observable": "pIC50", "observed": "> 7.00"}
{"structure.string": "Cc1nc(NC(=O)N2CC[C@@H](C)[C@H]2C(N)=O)sc1-c1ccnc(C(C)(C)C(F)(F)F)c1", "observable": "pIC50", "observed": 5.92}
{"structure.string": "Cc1cccc2cc(Cn3nc(Cl)c4c(N)ncnc43)n(-c3ccccc3F)c(=O)c12", "observable": "pIC50", "observed": "< 5.00"}

# evaluate next
Request the reported pIC50 associated with Cc1cn(C2CCN(c3cnc4ccc(-c5ccc6oc(N)nc6c5)cc4n3)CC2)cn1
> 5.00
